Attribution: patent US12071404B2

- system under test: GPR17 (Homo sapiens)
- test method notes: Calcium mobilization functional assay (GPR17 Ca2+ assay)
- Format: cell-based
- Set-up: host or cells: Flp-In T-REx CHO
- cond: CHO hGPR17 cells, inhibition of 50 nM MDL29,951, Calcium 5 dye, FLIPR; read-out: Ca2+ assay pIC50 (converted)
# IC50 per record follows

Solved entries (count: 3):
smiles_data=O=S(=O)(Nc1ccc(Cl)cc1F)c1c[nH]c2cc3c(cc12)OCO3 assay_metric=IC50 reported="> 31.6 nM"
smiles_data=N#Cc1cc(F)c(NS(=O)(=O)c2c[nH]c3cc(Cl)ccc23)c(F)c1 assay_metric=IC50 reported="< 3.16 nM"
smiles_data=N#Cc1ccc(NS(=O)(=O)c2c[nH]c3cc(F)cc(F)c23)c(F)c1 assay_metric=IC50 reported="3.16 to 31.6 nM"

Next up:
For Cc1noc(C)c1-c1ccc2c(S(=O)(=O)Nc3ccc(C#N)cc3F)c[nH]c2c1 , what is its reported IC50?
> 31.6 nM

---

Measured IC50 values are reported for all entries that follow.
- system under test: UniProt:Q13304
- test method notes: Calcium mobilization functional assay (GPR17 Ca2+ assay)
- Type: cell-based
- Parameters: host or cells: Flp-In T-REx CHO
- cond: CHO hGPR17 cells, inhibition of 50 nM MDL29,951, Calcium 5 dye, FLIPR; read-out: Ca2+ assay pIC50 (converted)

In the examples that follow, each entry is paired with its recorded IC50.
molecule="COc1c(Cl)ccc2c(S(=O)(=O)Nc3cc(F)c(F)cc3F)c[nH]c12 [Compound I-196]" system_under_test=UniProt:Q13304 reported="> 31.6 nM"
molecule="N#Cc1cc(F)c(NS(=O)(=O)c2c[nH]c3cc(Cl)ccc23)cc1F [Compound I-185]" system_under_test=UniProt:Q13304 reported="< 3.16 nM"
molecule="COc1nc(NS(=O)(=O)c2c[nH]c3c(Cl)c(F)ccc23)c(F)cc1Cl [Compound I-357]" system_under_test=UniProt:Q13304 reported="3.16 to 31.6 nM"
molecule="CS(=O)(=O)c1ccc2c(S(=O)(=O)Nc3cc(F)c(F)cc3F)c[nH]c2c1 [Compound I-239]" system_under_test=UniProt:Q13304 reported="> 31.6 nM"
molecule="COc1nc(NS(=O)(=O)c2c[nH]c3cc(Cl)ccc23)c(F)cc1CC#N [Compound I-255]" system_under_test=UniProt:Q13304 reported="< 3.16 nM"
molecule="COCCOc1ccc2c(S(=O)(=O)Nc3cc(F)c(C#N)cc3F)c[nH]c2c1 [Compound I-146]" system_under_test=UniProt:Q13304 reported="> 31.6 nM"

Name the reported IC50 value associated with the molecule O=S(=O)(Nc1cc(F)c(Cl)cc1F)c1c[nH]c2cc(OCC(F)(F)F)ccc12 [Compound I-300]
3.16 to 31.6 nM

Give the measured IC50 of C#Cc1ccc(NS(=O)(=O)c2c[nH]c3cc(Cl)ccc23)c(F)c1 [Compound I-210] .
3.16 to 31.6 nM

Recorded IC50 for COc1nc(NS(=O)(=O)c2csc3cc(Cl)ccc23)c(F)cc1CC#N [Compound I-315] , please?
< 3.16 nM

Report IC50 for N#Cc1ccc2c(S(=O)(=O)Nc3cc(F)c(Cl)cc3F)c[nH]c2c1 [Compound I-277] please.
3.16 to 31.6 nM

Look at this molecule and give its reported IC50. O=S(=O)(Nc1ccc(Br)cc1F)c1c[nH]c2cc(Cl)ccc12 [Compound I-212]
3.16 to 31.6 nM

Param item = N#CCOc1cc(F)c(NS(=O)(=O)c2coc3cc(Cl)ccc23)cc1F [Compound I-342] ; retrieve measured IC50.
3.16 to 31.6 nM

Find the recorded IC50 belonging to O=S(=O)(Nc1cc(F)c(Cl)cc1F)c1c[nH]c2c(OCC(F)F)c(Cl)ccc12 [Compound I-262] and report it.
3.16 to 31.6 nM

What measured IC50 goes with Cc1cc(F)c(NS(=O)(=O)c2c[nH]c3cc(Cl)ccc23)cc1F [Compound I-270] ?
< 3.16 nM

Recorded IC50 for N#Cc1ccc(NS(=O)(=O)c2c[nH]c3cc(N=[N+]=[N-])ccc23)c(F)c1 [Compound I-335] , please?
3.16 to 31.6 nM

Suppose we examine the molecule N#CCc1ccc(NS(=O)(=O)c2c[nH]c3cc(Cl)ccc23)cc1 [Compound I-180] ; what IC50 value has been reported?
> 31.6 nM

Recorded IC50 of COc1cccc2c(S(=O)(=O)Nc3ccc(C#N)cc3F)c[nH]c12 [Compound I-115] , please.
> 31.6 nM

---

Catalogue of IC50 readings, one per entry.
- system under test: UniProtKB Q13304
- test method notes: Calcium mobilization functional assay (GPR17 Ca2+ assay)
- Format: cell-based
- Parameters: host or cells: Flp-In T-REx CHO
- cond: CHO hGPR17 cells, inhibition of 50 nM MDL29,951, Calcium 5 dye, FLIPR; read-out: Ca2+ assay pIC50 (converted)

Worked set:
compound="Cc1ccc(NS(=O)(=O)c2c[nH]c3c2ccc2ccccc23)c(F)c1 [Compound I-121]" reported="> 31.6 nM"
compound="O=S1(=O)CCc2ccc(NS(=O)(=O)c3c[nH]c4cc(Cl)ccc34)cc21 [Compound I-10]" reported="> 31.6 nM"
compound="O=S(=O)(Nc1cc2nsnc2cc1F)c1c[nH]c2nc(Cl)ccc12 [Compound I-144]" reported="3.16 to 31.6 nM"
compound="O=S(=O)(Nc1cc(F)c(Br)cc1F)c1c[nH]c2c1ccc1cccnc12 [Compound I-305]" reported="< 3.16 nM"

Fill in: IC50 of O=S(=O)(Nc1cccc2nonc12)c1c[nH]c2c1ccc1cccnc12 [Compound I-119] is ___
3.16 to 31.6 nM

Any idea what its IC50 is? The compound is CC(C)c1ccc2c(S(=O)(=O)Nc3ccc(C#N)cc3F)c[nH]c2c1 [Compound I-170]
< 3.16 nM

State the recorded IC50 for this entry: O=S(=O)(Nc1cc(F)cc(F)c1)c1c[nH]c2cc(Cl)ccc12 [Compound I-21]
> 31.6 nM

IC50 for O=S(=O)(Nc1ccc(Cl)cc1F)c1c[nH]c2cc(F)ccc12 [Compound I-51] ?
> 31.6 nM

Name the reported IC50 value associated with the compound COc1nc(NS(=O)(=O)c2c[nH]c3c(OC(F)F)c(Cl)ccc23)c(F)cc1F [Compound I-366]
3.16 to 31.6 nM

May I ask what IC50 has been recorded for C[S+]([O-])c1ccc2c(S(=O)(=O)Nc3ccc(C#N)cc3)c[nH]c2c1 (centres unmarked) [Compound I-237] ?
> 31.6 nM

Looking for the measured IC50 of COc1cc(C#N)c(F)cc1NS(=O)(=O)c1c[nH]c2c1ccc1ccccc12 [Compound I-289] , can you help?
< 3.16 nM

So what's the measured IC50 for this one? O=S(=O)(Nc1ccc(I)cc1F)c1c[nH]c2cc(F)ccc12 [Compound I-49]
> 31.6 nM

---

- system under test: GPR17 (Homo sapiens, UniProt Q13304)
- Sequence (Q13304 whole entry): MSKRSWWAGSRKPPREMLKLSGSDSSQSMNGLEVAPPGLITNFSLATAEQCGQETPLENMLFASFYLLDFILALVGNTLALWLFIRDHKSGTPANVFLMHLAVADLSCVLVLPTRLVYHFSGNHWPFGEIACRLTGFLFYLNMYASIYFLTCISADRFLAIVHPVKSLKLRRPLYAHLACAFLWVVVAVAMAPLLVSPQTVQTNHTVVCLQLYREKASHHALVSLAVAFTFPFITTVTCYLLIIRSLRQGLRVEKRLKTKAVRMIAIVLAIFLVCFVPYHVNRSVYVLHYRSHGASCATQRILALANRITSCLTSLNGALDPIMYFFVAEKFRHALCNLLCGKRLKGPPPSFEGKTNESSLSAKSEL
- test method notes: cAMP accumulation functional assay (HTRF, Schild analysis)
- Assay type: cell-based
- Design: host or cells: Flp-In T-REx CHO
- cond: CHO hGPR17 cells, Schild analysis vs MDL29,951, 5 μM forskolin, read-out: cAMP assay pA2 (converted)
The compounds listed here are annotated with their Kb.

Write down the reported Kb of O=S(=O)(Nc1cc(F)c(OC(F)F)cc1F)c1c[nH]c2nc(C(F)F)ccc12 , test system: GPR17 (Homo sapiens, UniProt Q13304).
3.16 to 31.6 nM

---

The reader will find reported IC50 values listed item by item below.
- system under test: GPR17 (Homo sapiens)
- test method notes: Calcium mobilization functional assay (GPR17 Ca2+ assay)
- Format: cell-based
- Parameters: host or cells: Flp-In T-REx CHO
- cond: CHO hGPR17 cells, inhibition of 50 nM MDL29,951, Calcium 5 dye, FLIPR; read-out: Ca2+ assay pIC50 (converted)

Past entries and their recorded results:
smiles_data=COc1nc(NS(=O)(=O)c2c[nH]c3c2ccc2ccccc23)c(F)cc1Cl reported="< 3.16 nM"
smiles_data=O=S(=O)(Nc1nc(F)c(Cl)cc1F)c1c[nH]c2c1ccc1ccccc12 reported="< 3.16 nM"
smiles_data=O=S(=O)(Nc1cc(F)c(F)cc1F)c1c[nH]c2cc(F)ccc12 reported="> 31.6 nM"

// below: IC50 requested for another compound
// lookup IC50 | system=GPR17 (Homo sapiens) | key= N#Cc1ccc(NS(=O)(=O)c2c[nH]c3cc(F)ccc23)cc1
> 31.6 nM

---

Reported Kb values follow for various molecules
- system under test: GPR17 (Homo sapiens, UniProt Q13304)
- test method notes: cAMP accumulation functional assay (HTRF, Schild analysis)
- Type: cell-based
- Parameters: host or cells: Flp-In T-REx CHO
- cond: CHO hGPR17 cells, Schild analysis vs MDL29,951, 5 μM forskolin, read-out: cAMP assay pA2 (converted)

smiles_data=O=S(=O)(Nc1cccc2nonc12)c1c[nH]c2c1ccc1cccnc12 assay_metric=Kb reported="3.16 to 31.6 nM"
smiles_data=O=S(=O)(Nc1cc(F)c(OC(F)F)cc1F)c1c[nH]c2cc(Cl)ccc12 assay_metric=Kb reported="< 3.16 nM"
smiles_data=COC/C=C/c1cc(F)c(NS(=O)(=O)c2c[nH]c3cc(Br)ccc23)nc1F assay_metric=Kb reported="< 3.16 nM"

What does the record list as Kb for COc1ccc2c(S(=O)(=O)Nc3cc(F)c(Br)cc3F)c[nH]c2c1 ?
< 3.16 nM

Requested read-out: Kb. Entry: O=S(=O)(Nc1cccc2nonc12)c1c[nH]c2cc(Cl)ccc12
3.16 to 31.6 nM

Look up Kb: COCCCc1cc(F)c(NS(=O)(=O)c2c[nH]c3cc(Br)ccc23)nc1F
< 3.16 nM

Field request: Kb | item: O=S(=O)(Nc1cccc2nsnc12)c1c[nH]c2ncc(I)cc12
3.16 to 31.6 nM

Which Kb value is on record for COc1ccc2c(S(=O)(=O)Nc3ccc(Br)cc3F)c[nH]c2c1 ?
3.16 to 31.6 nM

Name the recorded Kb for CCOCCc1cc(F)c(NS(=O)(=O)c2c[nH]c3cc(Cl)ccc23)nc1F .
< 3.16 nM

Quick one: Kb of N#Cc1ccc(NS(=O)(=O)c2c[nH]c3cc(Cl)ccc23)cc1Cl ?
3.16 to 31.6 nM

Look at this molecule and give its reported Kb. COc1c(Cl)ccc2c(S(=O)(=O)Nc3nc(F)c(Cl)cc3F)c[nH]c12
< 3.16 nM

// lookup Kb for COc1cc(NS(=O)(=O)c2c[nH]c3cc(Cl)ccc23)ccc1C#N
3.16 to 31.6 nM
